Test: Phase 1 study (NCT04249843): plasma pharmacokinetics of Compound A
Type: in vivo, human
Settings: human, plasma, oral, 40 mg, 40 mg QD, C2D1, patient 102-012; read-out: AUC8 h
Protocol: For a single-dose profile: AUC from zero to the last measurable concentration (AUClast), AUC from zero to infinity (AUC0-∞), maximum observed plasma concentration (Cmax), time to maximum observed plasma concentration (tmax), t1/2, apparent clearance, and apparent volume of distribution (Vz/F). In addition, AUClast,ss, AUCtau, Cmax,ss, and tmax, ss were calculated at steady state. […] Pharmacokinetic data were analyzed using the PK Population. […]
measurement label: AUC(0-t) (ng·h/mL)
Report only the number, with the unit ng·h/mL understood.

Look up and state reported AUC(0-t) for "O=C1CCc2c(Oc3ccc4c(c3)[C@H]3[C@H](NC(=O)Nc5cc(F)c(F)cc5F)[C@H]3O4)ccnc2N1"
18300

* * *

assay: Phase 1 study (NCT04249843): plasma pharmacokinetics of Compound A; type: in vivo, human; settings: human, plasma, oral; 5-60 mg QD, preliminary PK, overall
measurement label: Tmax

Look up and state reported Tmax for "O=C1CCc2c(Oc3ccc4c(c3)[C@H]3[C@H](NC(=O)Nc5cc(F)c(F)cc5F)[C@H]3O4)ccnc2N1"
~2 h

* * *

assay: Phase 1 study (NCT04249843): plasma pharmacokinetics of Compound A; type: in vivo, human; settings: human, plasma, oral, 40 mg, C1D1, patient 101-010
measurement label: Cmax (ng/mL)
Report only the number, with the unit ng/mL understood.

Look up and state reported Cmax for O=C1CCc2c(Oc3ccc4c(c3)[C@H]3[C@H](NC(=O)Nc5cc(F)c(F)cc5F)[C@H]3O4)ccnc2N1 [Compound A]
692

* * *

test: pKa; type: physicochemical
measurement label: pKa

Look up and state reported pKa for "O=C1CCc2c(Oc3ccc4c(c3)[C@H]3[C@H](NC(=O)Nc5cc(F)c(F)cc5F)[C@H]3O4)ccnc2N1"
5.28

* * *

assay: Phase 1 study (NCT04249843): plasma pharmacokinetics of Compound A; format: in vivo, human; conditions: human, plasma, oral, 40 mg, C1D1, patient 202-012
measurement label: Cmax (ng/mL)
Report only the number, with the unit ng/mL understood.

Look up and state reported Cmax for "O=C1CCc2c(Oc3ccc4c(c3)[C@H]3[C@H](NC(=O)Nc5cc(F)c(F)cc5F)[C@H]3O4)ccnc2N1"
896

* * *

experiment: Phase 1 study (NCT04249843): plasma pharmacokinetics of Compound A; format: in vivo, human; settings: human, plasma, oral, 25 mg, C1D1, Mean (%CV)
measurement label: Cmax (ng/mL)
Report only the number, with the unit ng/mL understood.

Look up and state reported Cmax for "O=C1CCc2c(Oc3ccc4c(c3)[C@H]3[C@H](NC(=O)Nc5cc(F)c(F)cc5F)[C@H]3O4)ccnc2N1"
593

* * *

Assay: Phase 1 study (NCT04249843): plasma pharmacokinetics of Compound A
Assay type: in vivo, human
Details: human, plasma, oral, 60 mg, C1D1, patient 201-011; read-out: AUC8 h
Method: For a single-dose profile: AUC from zero to the last measurable concentration (AUClast), AUC from zero to infinity (AUC0-∞), maximum observed plasma concentration (Cmax), time to maximum observed plasma concentration (tmax), t1/2, apparent clearance, and apparent volume of distribution (Vz/F). In addition, AUClast,ss, AUCtau, Cmax,ss, and tmax, ss were calculated at steady state. […] Pharmacokinetic data were analyzed using the PK Population. […]
measurement label: AUC(0-t) (ng·h/mL)
Report only the number, with the unit ng·h/mL understood.

Look up and state reported AUC(0-t) for "O=C1CCc2c(Oc3ccc4c(c3)[C@H]3[C@H](NC(=O)Nc5cc(F)c(F)cc5F)[C@H]3O4)ccnc2N1"
5510
